Tested on: SF-295 CNS
test-description: NCI tumour cell line growth inhibition, 48 h
reported-property: TGI

Some compounds with recorded TGI:
O=C1Sc2cc3ccccc3cc2C(=O)Sc2cc3ccccc3cc21 ... > 100 µM
Clc1ccc(Cc2nc3ccccc3nc2-c2cccc(Cl)c2)cc1 ... 32.6 µM
c1ccc2c(c1)ccc1nc(-c3ccc4c(c3)OCO4)c3c(c12)CCC3 ... > 100 µM

Problem: Answer with reported TGI of CCCC1c2c(ccc3ccccc23)Oc2ccc3ccccc3c21
Result: 88.6 µM

Problem: Identify measured TGI associated with CCCC(CC)c1cc(O)c(O)cc1C(CC)CCC (configuration not stated)
Result: > 10 µM

Problem: In one line, give reported TGI of the entry CCCCCCCCCCC[N+]1(Cc2ccccc2)CC2CCN(Cc3ccccc3)CC2C1 (configuration not stated) .
Result: 2.28 µM

Problem: In one line, give reported TGI of the entry Oc1ccc(Cc2ccc(O)c3ncccc23)c2cccnc12 .
Result: 0.948 µM

Problem: Note TGI for the compound shown: CC(=O)OC[C@H]1O[C@@H](n2ccc(=O)[nH]c2=O)[C@H](OC(C)=O)[C@@H]1OC(C)=O
Result: > 100 µM

Problem: Let me know recorded TGI for C/C(O)=C(\N=O)C(=O)NCCc1ccccc1 , thanks.
Result: > 100 µM
